- TEST SUMMARY: Toxicity liver stage against HepG2, at 10uM
- Format: cell-based
- Parameters: test concentration 10 uM, cell line HepG2-A16-CD81EGFP
- CONDITION DETAILS: human, HepG2-A16-CD81EGFP cells; read-out: INHIBITION
For each record, write down the corresponding cytotoxicity at 10 µM.

Consider the worked cases shown below.
molecule="OC1(CNCc2ccc(F)c(C(F)(F)F)c2)CCOC1 (stereo unspecified)" reading=9.21%
molecule="O=C(c1ccoc1)N1CCCC2(CCC(=O)N2Cc2cccnc2)C1 (stereo unspecified)" reading=-4.41%
molecule="COc1c(C2CCCN2C(=O)c2ccc3[nH]cnc3c2)c(C)nn1C (stereo unspecified)" reading=-8.04%
molecule="CC(=O)N1CCCN(C(=O)NC(C)Cn2ccnc2)CC1 (stereo unspecified)" reading=4.52%
molecule="CC(Cn1ccnc1)NC(=O)Cc1ccc2c(c1)OCCO2 (stereo unspecified)" reading=-7.2%
molecule="CN(C)C(=O)c1cn[nH]c1C1CCCN1Cc1nccn1C (stereo unspecified)" reading=-1.08%
molecule=CCc1nc(CN2CCN(C(=O)N3CCCCC3)CC2)cs1 reading=-16%
molecule="CCc1nc(C)c(-c2nccn2CC2CC(=O)N(CC)C2)[nH]1 (stereo unspecified)" reading=0.361%

Kindly give each listed record's cytotoxicity at 10 µM.
1. CN(Cc1cnc(N)nc1)C(=O)C1CCN(C(=O)C2CCCC2)CC1
2. Cc1csc(N2CCN(CC(=O)Nc3ccncc3)CC2C)n1 (stereo unspecified)
3. Cc1ccc(C(=O)N2CCC3(CC2)COCCN(S(C)(=O)=O)C3)cc1C

Given back:
1: -1.42%; 2: 29.3%; 3: 3.27%

###

Exercise: state measured cytotoxicity at 10 µM for each of the compounds provided.
- TEST SUMMARY: Toxicity liver stage against HepG2, at 10uM
- Assay type: cell-based
- Set-up: test concentration 10 uM, cell line HepG2-A16-CD81EGFP
- CONDITION DETAILS: human, HepG2-A16-CD81EGFP cells; read-out: INHIBITION
Answers are plain numbers, in %.

Worked cases, cytotoxicity at 10 µM given:
compound=O=C(CCn1cccn1)NCCOc1cccc(Cl)c1 reading=-2.48
compound=NC(=O)NC(=O)CCn1ccc(-c2ccc(F)cc2)n1 reading=4.19
compound=CNC(=O)c1cn(C(C)(C)C)c2ncccc12 reading=-7.85
compound=Cc1ccc(S(=O)(=O)Nc2ccc(-n3cccc3C(=O)O)c(C)c2)s1 reading=6.15
compound=CCc1nnc2n1CCN(C(=O)CCc1ccc(C)c(Cl)c1)C2 reading=-4.01
compound=CC(=O)NCC1CCN(c2cc(C)nc(-c3ccncc3)n2)CC1 reading=-1.36
compound=O=C(Nc1ccc(Cl)cn1)c1cncc(C2CCNCC2)n1 reading=-13.5
compound=O=C(CCNc1ncccn1)NCc1csc(Br)c1 reading=5.15
compound=Cn1ncc2c1CCCN(C(=O)C1CCCC1)C2 reading=4.13
compound="CN1CCCC(c2nccnc2-c2cccc(Cl)c2)C1 (configuration not stated)" reading=3.57

Provide the reported cytotoxicity at 10 µM of each entry below, same order.
1. CCc1cc(C(=O)N2CC[C@@H](c3ccc4c(c3)OCO4)[C@H](O)C2)[nH]n1
2. CCn1ncc(Nc2[nH]cnc3nc(C)nc2-3)c1C

Given back:
-3.87
3.26

###

Exercise: for every item that follows, state its recorded cytotoxicity at 10 µM.
- TEST SUMMARY: Toxicity liver stage against HepG2, at 10uM
- Format: cell-based
- Set-up: test concentration 10 uM, cell line HepG2-A16-CD81EGFP
- CONDITION DETAILS: human, HepG2-A16-CD81EGFP cells; read-out: INHIBITION
One number for each entry, in %.

molecule="CC(C)(C)C(=O)NC(c1nccs1)C1CCN(CC2CCCCC2)CC1 (configuration not stated)" units=% reading=6.5

Provide reported cytotoxicity at 10 µM for each item, in the same order as listed.
1. COc1cccc(N2CCN(C(=O)CO)CC2=O)c1
2. O=C(CCc1ccc(Br)cc1)NCc1nnc[nH]1
3. CC(Cn1cccn1)NC(=O)Nc1nnc(C2CC2)s1 (configuration not stated)
4. CC(NCc1cnc(N2CCOCC2)s1)c1ccc(Cl)s1 (configuration not stated)
5. Cc1c(C(=O)O)nnn1-c1cccc2cccnc12
6. Cc1ccc(Cl)c2c1C1(NC(=O)c3cccnc3N1)C(=O)N2 (configuration not stated)
7. COCC1CCCCN1C(=O)c1cc(-c2cccc(OC)c2)n[nH]1 (configuration not stated)

Given back:
[0.995, 0.163, -1.71, -9.02, 5.31, 11.9, 9.34]

Return reported cytotoxicity at 10 µM values for all items listed beneath this line.
1. O=C(NCc1ccccc1CO)C1COc2ccccc21 (configuration not stated)
2. CC(C)CN1C[C@@H]2OCC(=O)N(c3ccccc3)[C@@H]2C1
3. CC(=O)Nc1nc(C(=O)NC(C)c2ccc(C#N)cc2)cs1 (configuration not stated)
4. O=C(Nc1cccn(CC(F)(F)F)c1=O)c1ccc(F)cc1

Given back:
1: 12.3; 2: 1.08; 3: -10.5; 4: 14.3

###

I'd appreciate it if you could supply cytotoxicity at 10 µM values for the items below.
- TEST SUMMARY: Toxicity liver stage against HepG2, at 10uM
- Assay type: cell-based
- Design: test concentration 10 uM, cell line HepG2-A16-CD81EGFP
- CONDITION DETAILS: human, HepG2-A16-CD81EGFP cells; read-out: INHIBITION
One number for each entry, in %.

compound="Cc1ccc(CN(C(=O)NCC(c2cccs2)N(C)C)C2CC2)o1 (stereo unspecified)" reading=-4.24
compound=O=C(O)c1ccccc1-n1cnc(CN2CCc3ccccc3C2)c1 reading=13.6
compound=CC(C)c1cc(C(=O)N2CCOC3(CCCC3)C2)no1 reading=-6.2

Would you mind listing cytotoxicity at 10 µM for each of the following compounds?
1. CC(C)N1CCOCC2(CN(Cc3ccco3)CCO2)C1 (stereo unspecified)
2. CC(C)c1noc(C(C)N2CCN(Cc3nnc(C4CC4)o3)CC2)n1 (stereo unspecified)
3. Cc1cc(N2CCC(Cc3cccnc3)CC2)ncn1
4. OCC1CCCN(Cc2c(C3CCCC3)[nH]c3ncccc23)C1 (stereo unspecified)
5. CCC[C@@H]1CN(C(=O)Cc2sc(C)nc2C)C[C@H]1C(=O)O
6. Cc1cc(C)cc(CN2C[C@@H]3OCCN(CC(=O)N(C)C)[C@@H]3C2)c1
7. Cc1nnc(N2C[C@H]3OCC[C@H]3[C@H](C(=O)NCC3CC3)C2)s1

Given back:
[-7.53, -11.9, 1.96, 6.35, -125, -92.9, 2.03]

In plain terms, COC(=O)[C@@H]1CN(C(=O)NC(C)C)CCN1S(=O)(=O)c1ccccc1 has a documented cytotoxicity at 10 µM of 2.17

###

- TEST SUMMARY: Toxicity liver stage against HepG2, at 10uM
- Type: cell-based
- Parameters: test concentration 10 uM, cell line HepG2-A16-CD81EGFP
- CONDITION DETAILS: human, HepG2-A16-CD81EGFP cells; read-out: INHIBITION
REPORTED ENDPOINT: cytotoxicity at 10 µM (%)
Give bare numbers, in %.

Before answering, review these 6 worked examples.
compound="CCc1nc2n(n1)CC(NCc1cc3ccccc3o1)CC2 (stereo not drawn)" reading=3.77
compound="CN1C(=O)CCC12CCC(NC(=O)NCc1cccnc1)CC2 (stereo not drawn)" reading=-99.8
compound=COCCN1CCC(c2nc3c([nH]2)CC(C)(C)CNC3=O)CC1 reading=-3.13
compound=O=C1[C@H]2CCCC[C@H]2C(=O)N1c1cnn(Cc2cccc(F)c2)c1 reading=-5.24
compound="CC(NC(=O)CN(C)C(C)C)c1ccc(Oc2cccnc2)c(F)c1 (stereo not drawn)" reading=2
compound="COCc1ccccc1C(=O)N1CCCC1Cn1nc(C)cc1C (stereo not drawn)" reading=-3.98

Please state cytotoxicity at 10 µM for every compound in the list that follows.
1. CN(C)c1ccc(-c2cccc(-c3ccn(CCCO)n3)c2)nn1
2. CCc1cc(CN(C)C(=O)C2CC(=O)N(c3cccc(O)c3)C2)on1 (stereo not drawn)
3. CC(C)(CO)CCCNC(=O)NC1(C)Cc2ccccc2C1
4. Cc1cccc(N2CCCC3(C2)CN(c2nncs2)CCO3)c1 (stereo not drawn)
5. O=C(NCc1cc(Cl)ccn1)NCc1ccco1
6. O=C(NCCNc1ccc(C(F)(F)F)cn1)c1ccc(Br)cc1
7. CCc1[nH]c2c(CNC(=O)[C@@H]3CCCN3C)cc(C)cc2c1C

Given back:
1. -3.06
2. -1.72
3. -1
4. 9
5. 8.5
6. -6.28
7. -3.33

###

- TEST SUMMARY: Toxicity liver stage against HepG2, at 10uM
- Format: cell-based
- Parameters: test concentration 10 uM, cell line HepG2-A16-CD81EGFP
- CONDITION DETAILS: human, HepG2-A16-CD81EGFP cells; read-out: INHIBITION
What cytotoxicity at 10 µM was measured for each of the following?
Answers are plain numbers, in %.

Examples with their reported cytotoxicity at 10 µM follow.
molecule=Cc1noc(C)c1CN1C(=O)[C@@H]2CC[C@H]1CN(Cc1ncc[nH]1)C2 units=% reading=5.85
molecule="Cc1ccc2cccc(C(=O)NCC3CCN(C(C)C)C3)c2n1 (stereo not drawn)" units=% reading=-9.97
molecule="Cc1ccccc1N1CCN(C(=O)c2cnn(C(C)C)c2)C(C)C1 (stereo not drawn)" units=% reading=1.48
molecule=O[C@H]1CCCC[C@@H]1N1CCN(CCCc2ccc3c(c2)OCO3)CC1 units=% reading=-3.69

Each of the following entries comes with a recorded value; kindly state cytotoxicity at 10 µM for each.
1. CC(=O)N1N=C(c2ccccc2)OC1C(=O)NCC(=O)OC(C)(C)C (stereo not drawn)
2. CN(C)S(=O)(=O)c1ccc2c(c1)N(Cc1nccn1C)CCC2
3. CC(C)n1nc2c(cc1=O)CN(CCOc1ccc(C#N)cc1)CC2
4. Cc1ccc(-c2nc(CN3CCn4c(C)nnc4C3)cs2)o1

Given back:
[-0.376, 2.26, 14.9, -19.2]

Would you be so kind as to report cytotoxicity at 10 µM for each listed record?
1. CCSCCNc1nc2c(s1)c(C)nn2C
2. NC(=O)c1csc(N2C[C@@H](CN3CCCCC3)[C@@H](CO)C2)n1
3. Cc1csc(CNC(=O)N(C)Cc2ccc([S+](C)[O-])cc2)n1 (stereo not drawn)
4. N#CC1(C(=O)N2CCN(Cc3cscn3)CC2)CCCCC1
5. CCOc1cc(CNc2cc(-c3nc(C)no3)ccn2)ccc1OC

Given back:
-0.145
-1.39
4.53
-3.27
1.74

Could you report cytotoxicity at 10 µM for every entry in the following list?
1. CCOC(=O)C1CN(CC2CC2)Cc2ncn(CC)c21 (stereo not drawn)
2. CCN(CC)c1nc2sc(C(=O)NCC(=O)OC)cc2s1
3. CCn1ncc(CN2CCc3nc(-c4cccnc4)nc(O)c3C2)c1C
4. Cc1csc([C@H]2C[C@@H]3CCN(C(=O)c4cnccn4)C[C@H]3O2)n1
5. NC(=O)c1cnn2c1NCC(CNCCCc1ccccc1)C2 (stereo not drawn)

Given back:
[12.2, 1.05, -23.7, 1.07, -9.24]

Please look at the items below and tell me cytotoxicity at 10 µM for each one, in order.
1. O=C(O)c1nnn(Cc2cccc(C(F)(F)F)c2)c1-c1cccnc1
2. O=C1NCCN(C(=O)c2cn3ccsc3n2)C1c1cccc(F)c1 (stereo not drawn)
3. CC(=O)N1CCN(CCNS(=O)(=O)c2c(F)cccc2F)CC1
4. CNc1nc(CNC(=O)Nc2cc(Cl)ccc2F)cs1
5. CC(=O)N1C[C@H](c2cc(O)nc(C)n2)[C@@H](c2ccccc2F)C1

Given back:
[6.46, -5.18, -1.14, -6.95, 1.65]
